- experiment-notes: gradient 5% acetonitrile 3 min, to 50% in 2 min, to 85% in 15 min, held 3 min, 100 µL/min
- recorded-conditions: column: Zorbax Extend-C18 2.1 x 50 mm; eluents: water / acetonitrile, 0.1% formic acid
Kindly supply the reported RP-LC retention time values for the records listed here.
Answer in s, number only, no unit symbol.

Prompt line: Fill in reported RP-LC retention time for this entry: O=C(COc1cc(O)c2c(=O)cc(-c3ccccc3)oc2c1)OCc1ccccc1
Response line: 1200

Prompt line: Supply measured RP-LC retention time of Cc1ccc(CN2CCN(CC(=O)Nc3ccc4c(c3)OCO4)C(=O)C2=O)cc1 in your reply.
Response line: 742

Prompt line: # return recorded RP-LC retention time for entry CC1=C(c2ccccc2)S(=O)(=O)N=C1N1CCCN(C(=O)Nc2ccccc2F)CC1
Response line: 811

Prompt line: Tell us which RP-LC retention time value is on record for CCc1cc(=O)n(CC(=O)Nc2cc(C)cc(C)c2)c(N2CCOCC2)n1
Response line: 802

Prompt line: For the molecule COc1ccccc1CNC(=O)C1CCc2nc(N3CCCCC3)ncc2C1 (centres undefined) , report RP-LC retention time.
Response line: 755

Prompt line: Give the reported value of RP-LC retention time for this record: COC(=O)c1cccc(NC(=O)c2c(O)c3cccnc3n(-c3ccc(F)cc3)c2=O)c1
Response line: 1190

Prompt line: Give the reported RP-LC retention time for this molecule. Cc1ccn2cc(-c3ccc(NC(=O)c4ccc5ccccc5c4)cc3)nc2n1
Response line: 710

Prompt line: For the molecule O=S(=O)(c1ccc(F)cc1)N1CCC2(CC1)NCCN=C2NCc1ccc(Cl)cc1 , give its measured RP-LC retention time value.
Response line: 722

Prompt line: # return recorded RP-LC retention time for input CCOc1ccc(S(=O)(=O)NCC(c2cn(C)c3ccccc23)N(C)C)cc1F (centres undefined)
Response line: 603

Prompt line: Give a short answer stating reported RP-LC retention time for O=C(NCc1ccc(Br)cc1)C1CCN(c2cncnc2N2CCCC2)CC1 .
Response line: 704

Prompt line: Quickly give me recorded RP-LC retention time for COC(=O)C1=CN(c2ccc(F)c(F)c2)c2ccccc2S1(=O)=O
Response line: 789

Prompt line: Using known records, supply RP-LC retention time for Cc1csc(-c2cc(S(=O)(=O)N3CCCCCC3)c(C)n2C)n1
Response line: 1100

Prompt line: Identify the reported RP-LC retention time for the following entry. COCc1noc([C@@H]2CC(F)(F)CN2C(=O)C(C)C)n1
Response line: 711

Prompt line: Give reported RP-LC retention time value for CC(C)CCNC(=O)CN1C(=O)CCn2nc(-c3cn(C)c4ccccc34)cc21
Response line: 807

Prompt line: Return RP-LC retention time (reported value) for this molecule: O=C(NCCn1c(=O)n(Cc2ccc(F)cc2)c2cccnc21)c1cccs1
Response line: 772

Prompt line: Report measured RP-LC retention time; entry is O=C(Cn1ncc2c(c1=O)N(C1CC1)C(=O)CS2)NCCc1ccc(Cl)cc1
Response line: 755

Prompt line: Supply measured RP-LC retention time of CCN1CCC(N(Cc2cccs2)C(=O)Nc2ccccc2C)CC1 in your reply.
Response line: 646

Prompt line: Report RP-LC retention time, nothing else, for this molecule: Cc1cc(C)cc(NC(=O)Cn2ccc3sccc3c2=O)c1
Response line: 820

Prompt line: Give RP-LC retention time for CC(=O)c1cccc(NC(=O)Cn2nc3c4cc(-c5ccc(Cl)cc5)nn4ccn3c2=O)c1
Response line: 902
